Examples of sequences with documented protease stability score follow.
# test.name: protease stability score; higher = more stable; yeast display proteolysis, trypsin and chymotrypsin;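 note: relative to predicted unfolded state with 0 unfolded-like and 1 meaning tenfold more protease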
Just the number, please.

Some sequences with known protease stability score results, for comparison:
Which protease stability score value is on record for `NEDEEHFKKWFEKYLRSLRTGDEENTRKLFDPHVRIEFENHELHGWENAVRFFRELHHRADVIHLELHDYTIVGDYVYIDVIVHLIYNGREFRHDVKIDASKIDGQWRIESLSIK` ?
1.64

Which protease stability score value is on record for `SDTEHDARRVIEELSKALLTGDWRRIEELLDPNTRWVFNGQEFHGMEIVIKVLIHLRRHMTHVEFHDIHTIDGRVHSDTEFDVSLIINGKTERTRVHVEFIIRKVNGRWRIEEVRFE` ?
2.25

Which protease stability score value is on record for `DEDTEIALKLHRLILHFIHTGDWENFAKYLDPRTKLHVGEFNNVGMEEIRKTWKHLRLRIDMYDERRVEVIDGRLHVEGEIRSTVHIGDKELHFERDSNFILVVINGRVKRIEINIV` ?
1.47

Which protease stability score value is on record for `SELEKELREFIKKVVEALATGDEDLLRELFDPHVRVKIGEWHFIGMEEMLRLIREIRMEIEEVRITELQIQGDKIHMETRLHGRLHIGDKERQTHYSTRVNVRKIDGQWITKSWEVH` ?
2.04

Which protease stability score value is on record for `SEHHKLLVEIAHLWIRNVLTGDEDRLKEMADPNVRIHINGVDIHGMEDFVRHVHERLKEIWIRIEIKRMVPYDGRAEVDGTMHVIVNGQKLSRRVHYDIIIVDGVLQEQHVHVE` ?
1.64

Next:
Which protease stability score value is on record for `DEEKHLALFLYRILVKWWLTGNEEDESHLADPHTRFEVNGVELIGRELSSHMIERELREIRVIIEIEEFRTVGDKVDIRLTLKYEYGDKEDSRESHLELIIIDGKTTHVEVRER` ?
1.6

Which protease stability score value is on record for `DEEEKVSRLAWELLFKTWKTGDEHEFHHMFDPDVRVDFNGRHLHGREAEEILFKQVDHIEDLHLRHIHMIDGKIQIEEDVVGHFNGQRTNVHVRFVAKKIDGRWRNKMVIVR` ?
1.2

Which protease stability score value is on record for `SEHDESIHRHFEKIHESIRTGDEELLRKFLDPNTLLVNEDEKVVGWEQWVEQVRRHLTELGAKHVSFSLHDRRFFDGRLHLDSRVIIEIGDKRLSLETEVINLKFNGRWIITSLTSS` ?
1.14

Which protease stability score value is on record for `SEDEKIASEIAEYVERAFRTGNEEEWERYADPHVRTDVNGQDLIGRRTLEEMFHRIDHLHDSRMEIHDVKLVNGRIISDVRLHLDSHYNGVRFEWEHEVRIQVDKINGRWRVKFIEIR` ?
0.428

Which protease stability score value is on record for `TEEDHELRLAHEELHRDLDTGDWESFMRYMDPRARVHYNGREFIGREFAVKFYLDVLNKYKGLTFRIHDIRIFDGVLFVRVKFHFDGQWLHSSEVALKVNGQWHNHHVSFI` ?
0.611

---

# test.name: protease stability score; higher = more stable; yeast display proteolysis, trypsin and chymotrypsin;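 note: relative to predicted unfolded state with 0 unfolded-like and 1 meaning tenfold more protease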
Examples of sequences with documented protease stability score follow.
Just the number, please.

Some sequences with known protease stability score results, for comparison:
Which protease stability score value is on record for `DEHEEEVREMHRVWVELLRTGDWRILAEMFDPNVRMHIGDKEHHGREAIEIHIEKFKNVRLEITRVHIQGEYIVIEGVINIDGKTHTLRFHFVLVNGRLKQYDEHSE` ?
2

Which protease stability score value is on record for `TEEEEEFHEILEHFLTQLHTGDWEEIIKNLDPNVLFHFNGVLFHGREEVSRFLVEWFDKIKGMRIHIHELRIVGDKATIDTRLDVGEKTHRVIIHIRKINGRWLITEIRIE` ?
2.02

Next:
Which protease stability score value is on record for `SEDEEAVRRILKKLLQSHETGDFRMFDRMLDPHVRLDVNGREHIGRESVHRVVEELRIEDMRLTDMHSQGNYLDIDGRLDGSVNGKKDTYRVRLVILKVDGRWIIEEMRIG` ?
1.95
